The values you see were collected from the supplement of paper PMC6757056.

I'd appreciate it if you could supply normalized RNA/DNA level without ligand (log10) values for the items below.
B1: library; a variant is named by its letters at N, in order (parent)
chain: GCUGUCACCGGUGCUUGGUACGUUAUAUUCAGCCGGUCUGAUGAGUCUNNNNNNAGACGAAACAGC

variants of: B1; test: normalized RNA/DNA level without ligand (relative to sTRSVctl = 100) (log10 (% of sTRSVctl)); HEK293T overexpressing SLC46A1; higher = less ribozyme self-cleavage, higher mRNA level; details: without (6R,S)-folinic acid; ligand present: no

These solved cases illustrate the format of a correct answer.
[
  {
    "mutationSpec": "GUCCGC",
    "reportedResult": 2.07
  },
  {
    "mutationSpec": "UGACCU",
    "reportedResult": 2.06
  },
  {
    "mutationSpec": "GUCGUC",
    "reportedResult": 2.02
  },
  {
    "mutationSpec": "GGCAGA",
    "reportedResult": 2.08
  },
  {
    "mutationSpec": "CAUAGA",
    "reportedResult": 2
  },
  {
    "mutationSpec": "CGGCAU",
    "reportedResult": 2.01
  },
  {
    "mutationSpec": "AGUACG",
    "reportedResult": 1.93
  },
  {
    "mutationSpec": "GCGAGA",
    "reportedResult": 2
  }
]

Please give normalized RNA/DNA level without ligand (log10) for each item listed below.
1. UGCCCU
2. GUAUCG
3. CUAAGC
4. CCUGAU

1: 2.06; 2: 2.03; 3: 2.02; 4: 2.02

Below are some variants; for each one, tell me its normalized RNA/DNA level without ligand (log10).
1. CCGCUA
2. CUUGUA

1. 2.01
2. 2.03

Batch request: normalized RNA/DNA level without ligand (log10) per item, same order as input.
1. AUUCGG
2. CUGGCU
3. CCCACC
4. CAGACU
5. UCUCGA

1: 1.95; 2: 2.03; 3: 2.02; 4: 2.05; 5: 2.07

Record normalized RNA/DNA level without ligand (log10) for all entries; do not skip any.
1. UUGUUC
2. AAGCCG
3. UAUAAA

[2.06, 1.99, 1.92]
